src = patent US20210040232A1

Items are presented alongside their recorded pIC50.
target: T1, recombinant hCTLA-4-mFc (human CTLA-4 extracellular domain with a C-terminal Fc portion of mouse IgG2a) (human); test: competition ELISA, 200 pM hCTLA-4-mFc on plate-coated hB7-1-hIgG1-6His
T1 construct: also called dimeric CTLA-4 protein
T1 sequence (chain, as listed by the source limits assumed): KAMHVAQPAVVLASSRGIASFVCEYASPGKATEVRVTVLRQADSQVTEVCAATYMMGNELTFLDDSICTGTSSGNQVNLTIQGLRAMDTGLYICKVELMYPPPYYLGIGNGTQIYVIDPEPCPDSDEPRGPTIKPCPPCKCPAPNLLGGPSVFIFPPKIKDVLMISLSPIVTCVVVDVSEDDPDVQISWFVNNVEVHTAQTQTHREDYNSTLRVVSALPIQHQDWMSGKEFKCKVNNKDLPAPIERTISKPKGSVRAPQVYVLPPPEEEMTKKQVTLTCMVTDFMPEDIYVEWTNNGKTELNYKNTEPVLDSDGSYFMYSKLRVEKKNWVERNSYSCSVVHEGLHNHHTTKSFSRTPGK
To interpret pIC50, take it as minus log10 of a concentration measured in moles per litre.

These solved cases illustrate the format of a correct answer.
| binder | endpointValue |
| --- | --- |
| H1H19312P (antibody, human IgG1, V domains shown) VH: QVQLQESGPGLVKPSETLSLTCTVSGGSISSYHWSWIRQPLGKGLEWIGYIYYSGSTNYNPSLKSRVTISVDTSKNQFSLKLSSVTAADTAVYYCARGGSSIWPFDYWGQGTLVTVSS VL: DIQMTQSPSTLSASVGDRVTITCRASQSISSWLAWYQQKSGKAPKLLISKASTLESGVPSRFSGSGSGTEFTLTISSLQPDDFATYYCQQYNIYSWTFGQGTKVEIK | 9.70 |
| H1H20361N (antibody, human IgG1, V domains shown, here with human IgG1 Fc (H1H)) VH: QVQLQESGPGLVKPSQTLSLTCTVSGGSINNGGHYWTWIRQHPGKGLEWIGYIYYIGTTYYNPSLESRLSLSVDTSKNQFSLKLSSVTAADTAIYYCARSSLSVSEAFDVWGQGTMVTVSS VL: DIQMTQSPSSLSASVGDRITITCRGSQNIGSFLSWYQQRPGKAPKLLIFGAYNLQGGVPSRFSGSGSGTDFTLTISSLQPEDFATYFCQQSYSTPPITFGQGTRLEIK | 7.16 |
| H1H20372N (antibody, human IgG1, V domains shown, here with human IgG1 Fc (H1H)) VH: EVQLVESGGGLVQPGRSLRLSCAGTGFIFDDYAMHWVRQAPGKGLEWVSGISWNSNSLGYADSVKGRFTISRDNAKKSLYLQMSSLRAEDTALYYCVKDVTRLELRGFLDYWGQGTQVTVSS VL: DIQMTQSPSSLSASVGDRVTITCRASQDIRNDLGWHQQKSGKAPKSLIYAASSLQSGAPSRFSGSGSGTEFTLTISSLQPEDSATYYCLQQNSYPPTFGQGTKVEIK | 8.60 |
| H1H19305P (antibody, human IgG1, V domains shown) VH: QVQLQESGPGLVKPSQTLSLTCTVSGGSITSGGYYWSWIRQHPGKGLEWIGYIFYSGITNYNPSLKSRVTISVDTSKNQFSLKLTSVTAADTAVYYCATYNSLRLYYGMDVWGQGTTVTVSS VL: DVVMTQSPLSLPVILGQPASISCRSSQSLVYGDGNTYLNWFQQRPGQSPRRLIYKVSNRDSGVPDRFSGSGSGTDFTLKISRVEAEDVGVYYCMQSTHWPLTFGGGTKVEIK | 9.72 |

Let us move to another entry and its pIC50.
**Query** Can you look up the measured pIC50 of H1H19284P (antibody, human IgG1, V domains shown) VH: EVQLVESGGGLVQPGGSLRLSCAASGFTLSNYVMTWVRQAPGKGLEWVSAISGRGGNSYYADSVKGRFSISRDHSKNTLYLQVNSLRAEDTAVYYCAKAERGYSYGFNWFDPWGQGTLVTVSS VL: DIQMTQSPSSVSASAGDRVTITCRASQGISSWLAWYQQKPGKAPKLLIYAASSLQSGVPSRFSGSGSGTDFTLTISSLQPEDFASYYCQQGNNFPLTFGGGTKVEIK for me?
**Result** 9.77
